# EE (%) N/P:6 per entry
- test: Plate-based fluorescence (RiboGreen) assay: nucleic acid cargo content and encapsulation efficiency of LNPs
- Format: physicochemical
- conditions_used: LNP, Formulation F2, N/P 6
Enter your answer as a number in %; do not include the unit.

CCCCCCCCOC(CCC(=O)OCC(COC(=O)CCCCCCOC(=O)C(CCCC)CCCCCC)(COC(=O)CCC(CCCCCC)OC(=O)NCCN1CCCC1)COC(=O)CCC(OCCCCCCCC)OCCCCCCCC)OCCCCCCCC (centres unmarked)    100
CCCCC/C=C\CCOC(=O)CCCCCC(=O)OCC(COC(=O)CCCCCC(=O)OCC/C=C\CCCCC)(COC(=O)CCCCCC(=O)OCC/C=C\CCCCC)COC(=O)CCC(CCCCCC)OC(=O)NCCN1CCCC1 (centres unmarked)    97
CCCCC/C=C\C/C=C\CCCCCCCC(=O)OCC(COC(=O)CCCCCCC/C=C\C/C=C\CCCCC)(COC(=O)CCCCCCC/C=C\C/C=C\CCCCC)COC(=O)CCC(CCCCCC)OC(=O)NCCN1CCCC1 (centres unmarked)    98
CCCCC/C=C\C/C=C\CCCCCCCC(=O)OCC(COC(=O)CCCCCCC/C=C\C/C=C\CCCCC)(COC(=O)CCC(CCCCCC)OC(=O)NCCN1CCCC1)COC(=O)CCC(OCCCCCCCC)OCCCCCCCC (centres unmarked)    100

// next item, EE (%) N/P:6 requested
Data request: Retrieve EE (%) N/P:6 measured for CCCCC/C=C\CCOC(=O)CCCCCCC(=O)OCC(COC(=O)CCCCCCC(=O)OCC/C=C\CCCCC)(COC(=O)CCCCCCC(=O)OCC/C=C\CCCCC)COC(=O)CCC(CCCCCC)OC(=O)NCCN1CCCC1 (centres unmarked) and print it.
Data returned: 100

---

Quick list: mRNA Content per entry.
- test: Plate-based fluorescence (RiboGreen) assay: nucleic acid cargo content and encapsulation efficiency of LNPs
- Type: physicochemical
- conditions_used: LNP compositions for in vivo mouse study; four formulations (F1-F4) pooled, or pools of four compounds

Examples from the recorded data:
CCCCC/C=C\CCOC(=O)CCCCCC(=O)OCC(COC(=O)CCCCCC(=O)OCC/C=C\CCCCC)(COC(=O)CCC(CCCCCC)OC(=O)NCCN1CCCC1)COC(=O)CCC(OCCCCCCCC)OCCCCCCCC (stereo not shown)    102 µg/mL
CCCCCCCC/C=C\CCCCCCCC(=O)OCC(COC(=O)CCCCCCC/C=C\CCCCCCCC)(COC(=O)CCC(CCCCCC)OC(=O)NCCN1CCCC1)COC(=O)CC12CC3CC(CC(C3)C1)C2 (stereo not shown)    83 µg/mL
CCCCC/C=C\C/C=C\CCCCCCCC(=O)OCC(COC(=O)CCCCCCC/C=C\C/C=C\CCCCC)(COC(=O)CCCCCCC/C=C\C/C=C\CCCCC)COC(=O)CCC(CCCCCC)OC(=O)NCCN1CCCC1 (stereo not shown)    86 µg/mL
CCCCC/C=C\C/C=C\CCCCCCCC(=O)OCC(COC(=O)CCCCCCC/C=C\C/C=C\CCCCC)(COC(=O)CCC(CCCCCC)OC(=O)NCCN1CCCC1)COC(=O)CCC(OCCCCCCCC)OCCCCCCCC (stereo not shown)    100.1 µg/mL
CCCCC/C=C\CCOC(=O)CCCCCC(=O)OCC(COC(=O)CCCCCC(=O)OCC/C=C\CCCCC)(COC(=O)CCCCCC(=O)OCC/C=C\CCCCC)COC(=O)CCC(CCCCCC)OC(=O)NCCN1CCCC1 (stereo not shown)    84 µg/mL

Data request: Kindly indicate its recorded mRNA Content. Item: CCCCCCCC/C=C\CCCCCCCC(=O)OCC(COC(=O)CCCCCCC/C=C\CCCCCCCC)(COC(=O)CCC(CCCCCC)OC(=O)NCCN1CCCC1)COC(=O)CCC(OCCCCCCCC)OCCCCCCCC (stereo not shown)
Data returned: 99.1 µg/mL

Data request: Recall and state the measured mRNA Content for CCCCC/C=C\CCOC(=O)CCCCCCC(=O)OCC(COC(=O)CCCCCCC(=O)OCC/C=C\CCCCC)(COC(=O)CCCCCCC(=O)OCC/C=C\CCCCC)COC(=O)CCC(CCCCCC)OC(=O)NCCN1CCCC1 (stereo not shown) .
Data returned: 101.7 µg/mL

Data request: Look up mRNA Content of CCCCC/C=C\CCOC(=O)CCCCC(=O)OCC(COC(=O)CCCCC(=O)OCC/C=C\CCCCC)(COC(=O)CCC(CCCCCC)OC(=O)NCCN1CCCC1)COC(=O)CC12CC3CC(CC(C3)C1)C2 (stereo not shown) and report it.
Data returned: 93 µg/mL

Data request: Check the records and state mRNA Content for CCCCC/C=C\C/C=C\CCCCCCCC(=O)OCC(COC(=O)CCCCCCC/C=C\C/C=C\CCCCC)(COC(=O)CCC(CCCCCC)OC(=O)NCCN1CCCC1)COC(=O)CC12CC3CC(CC(C3)C1)C2 (stereo not shown)
Data returned: 80 µg/mL

Data request: Output measured mRNA Content for this item: CCCCC/C=C\CCOC(=O)CCCCCC(=O)OCC(COC(=O)CCCCCC(=O)OCC/C=C\CCCCC)(COC(=O)CCC(CCCCCC)OC(=O)NCCN1CCCC1)COC(=O)CC12CC3CC(CC(C3)C1)C2 (stereo not shown)
Data returned: 108 µg/mL

---

- test: Dynamic light scattering: LNP particle size and PDI
- Assay type: physicochemical
- conditions_used: LNP, Formulation F1, N/P 6
Size (nm) N/P:6 listing for selected molecules.
Give just the number in nm; leave the unit off.

Observe how each entry below is paired with its result.
CCCCC/C=C\CCOC(=O)CCCCCC(=O)OCC(COC(=O)CCCCCC(=O)OCC/C=C\CCCCC)(COC(=O)CCC(CCCCCC)OC(=O)NCCN1CCCC1)COC(=O)CC12CC3CC(CC(C3)C1)C2 (stereo not drawn)    87
CCCCCCCC/C=C\CCCCCCCC(=O)OCC(COC(=O)CCCCCCC/C=C\CCCCCCCC)(COC(=O)CCC(CCCCCC)OC(=O)NCCN1CCCC1)COC(=O)CCC(OCCCCCCCC)OCCCCCCCC (stereo not drawn)    78

Continue with the molecule presented below.
Data request: Look up and state reported Size (nm) N/P:6 for CCCCCCCCOC(CCC(=O)OCC(COC(=O)CCCCCCOC(=O)C(CCCC)CCCCCC)(COC(=O)CCC(CCCCCC)OC(=O)NCCN1CCCC1)COC(=O)CCC(OCCCCCCCC)OCCCCCCCC)OCCCCCCCC (stereo not drawn)
Data returned: 64

---

Measured Size (nm) N/P:6 accompanies every entry in the list below.
- test: Dynamic light scattering: LNP particle size and PDI
- Assay type: physicochemical
- conditions_used: LNP, Formulation F3, N/P 6
Your answer is read as nm, so omit the unit and give the number.

Take a look at these entries with their results.
CCCCC/C=C\CCOC(=O)CCCCCCC(=O)OCC(COC(=O)CCCCCCC(=O)OCC/C=C\CCCCC)(COC(=O)CCCCCCC(=O)OCC/C=C\CCCCC)COC(=O)CCC(CCCCCC)OC(=O)NCCN1CCCC1 (stereo not drawn)    100
CCCCCCCC/C=C\CCCCCCCC(=O)OCC(COC(=O)CCCCCCC/C=C\CCCCCCCC)(COC(=O)CCC(CCCCCC)OC(=O)NCCN1CCCC1)COC(=O)CC12CC3CC(CC(C3)C1)C2 (stereo not drawn)    102

Could you now look at the following molecule, please?
Data request: // fetch Size (nm) N/P:6 given entry CCCCC/C=C\C/C=C\CCCCCCCC(=O)OCC(COC(=O)CCCCCCC/C=C\C/C=C\CCCCC)(COC(=O)CCCCCCC/C=C\C/C=C\CCCCC)COC(=O)CCC(CCCCCC)OC(=O)NCCN1CCCC1 (stereo not drawn)
Data returned: 91

---

- test: Dynamic light scattering: LNP particle size and PDI
- Format: physicochemical
- conditions_used: LNP compositions for in vivo mouse study; four formulations (F1-F4) of the lipid compound pooled, or pools of four compounds (sixteen compositions)
Entries annotated with measured Particle Size (nm)
Record the value in nm, omitting the unit from your answer.

Examples with answers:
CCCCC/C=C\CCOC(=O)CCCCCC(=O)OCC(COC(=O)CCCCCC(=O)OCC/C=C\CCCCC)(COC(=O)CCC(CCCCCC)OC(=O)NCCN1CCCC1)COC(=O)CCC(OCCCCCCCC)OCCCCCCCC (stereo not drawn)    79
CCCCC/C=C\CCOC(=O)CCCCCC(=O)OCC(COC(=O)CCCCCC(=O)OCC/C=C\CCCCC)(COC(=O)CCC(CCCCCC)OC(=O)NCCN1CCCC1)COC(=O)CC12CC3CC(CC(C3)C1)C2 (stereo not drawn)    101

Now for a further molecule.
Data request: Give Particle Size (nm) for CCCCC/C=C\CCOC(=O)CCCCCCC(=O)OCC(COC(=O)CCCCCCC(=O)OCC/C=C\CCCCC)(COC(=O)CCCCCCC(=O)OCC/C=C\CCCCC)COC(=O)CCC(CCCCCC)OC(=O)NCCN1CCCC1 (stereo not drawn)
Data returned: 91.7
